# test.summary: total protein half-life in vivo (active degradation + dilution); higher = more stable protein
# condition.notes: wild type E. coli NCM3722; growth: N-lim chemostat; doubling time 6 h
parameter: total protein half-life in vivo

Example sequences with recorded total protein half-life in vivo:
seq.text	total protein half-life in vivo
MLCVKNVSLRLPESRLLTNVNFTVDKGDIVTLMGPSGCGKSTLFSWMIGALAEQFSCTGELWLNEQRIDILPTAQRQIGILFQDALLFDQFSVGQNLLLALPATLKGNARRNAVNDALERSGLEGAFHQDPATLSGGQRARVALLRALLAQPKALLLDEPFSRLDVALRDNFRQWVFSEVRALAIPVVQVTHDLQDVPADSSVLDMAQWSENYNKLR	6.45 h
MYRIVLGKVSTLSAAPLPPGLREQAPQGPRRERWLAGRALLSHTLSPLPEIIYGEQGKPAFAPEMPLWFNLSHSGDDIALLLSDEGEVGCDIEVIRPRANWRWLANAVFSLGEHAEMDAVHPDQQLEMFWRIWTRKEAIVKQRGGSAWQIVSVDSTYHSSLSVSHCQLENLSLAICTPTPFTLTADSVQWIDSVN	3.78 h

In: Entry under review: `MKRMIALDGAQGEGGGQILRSALSLSMITGQPFTITSIRAGRAKPGLLRQHLTAVKAATEICGATVEGAELGSQRLLFRPGTVRGGDYRFAIGSAGSCTLVLQTVLPALWFADGPSRVEVSGGTDNPSAPPADFIRRVLEPLLAKIGIHQQTTLLRHGFYPAGGGVVATEVSPVASFNTLQLGERGNIVQMRGEVLLAGVPRHVAEREIATLAGSFSLHEQNIHNLPRDQGPGNTVSLEVESENITERFFVVGEKRVSAEVVAAQLVKEVKRYLASTAAVGEYLADQLVLPMALAGAGEFTVAHPSCHLLTNIAVVERFLPVRFSLIETDGVTRVSIE` . Reported total protein half-life in vivo?
Out: 4.52 h

* * *

# test.summary: total protein half-life in vivo (active degradation + dilution); higher = more stable protein
# condition.notes: wild type E. coli NCM3722; growth: N-lim chemostat; doubling time 6 h
Listed here are sequences together with their documented total protein half-life in vivo.
State just the number; it will be interpreted in h.

Some solved entries appear below for comparison.
seq.text	measurement.unit	total protein half-life in vivo
MKLFAQGTSLDLSHPHVMGILNVTPDSFSDGGTHNSLIDAVKHANLMINAGATIIDVGGESTRPGAAEVSVEEELQRVIPVVEAIAQRFEVWISVDTSKPEVIRESAKVGAHIINDIRSLSEPGALEAAAETGLPVCLMHMQGNPKTMQEAPKYDDVFAEVNRYFIEQIARCEQAGIAKEKLLLDPGFGFGKNLSHNYSLLARLAEFHHFNLPLLVGMSRKSMIGQLLNVGPSERLSGSLACAVIAAMQGAHIIRVHDVKETVEAMRVVEATLSAKENKRYE [P0AC13]	h	3.94
MSESLSWMQTGDTLALSGELDQDVLLPLWEMREEAVKGITCIDLSRVSRVDTGGLALLLHLIDLAKKQGNNVTLQGVNDKVYTLAKLYNLPADVLPR	h	4.86
MNIKGKALLAGCIALAFSNMALAEDIKVAVVGAMSGPVAQYGDQEFTGAEQAVADINAKGGIKGNKLQIVKYDDACDPKQAVAVANKVVNDGIKYVIGHLCSSSTQPASDIYEDEGILMITPAATAPELTARGYQLILRTTGLDSDQGPTAAKYILEKVKPQRIAIVHDKQQYGEGLARAVQDGLKKGNANVVFFDGITAGEKDFSTLVARLKKENIDFVYYGGYHPEMGQILRQARAAGLKTQFMGPEGVANVSLSNIAGESAEGLLVTKPKNYDQVPANKPIVDAIKAKKQDPSGAFVWTTYAALQSLQAGLNQSDDPAEIAKYLKANSVDTVMGPLTWDEKGDLKGFEFGVFDWHANGTATDAK [P0AD96]	h	6.02
MQDSILTTVVKDIDGEVTTLEKFAGNVLLIVNVASKCGLTPQYEQLENIQKAWVDRGFMVLGFPCNQFLEQEPGSDEEIKTYCTTTWGVTFPMFSKIEVNGEGRHPLYQKLIAAAPTAVAPEESGFYARMVSKGRAPLYPDDILWNFEKFLVGRDGKVIQRFSPDMTPEDPIVMESIKLALAK	h	3.99
MARTKLKFRLHRAVIVLFCLALLVALMQGASWFSQNHQRQRNPQLEELARTLARQVTLNVAPLMRTDSPDEKRIQAILDQLTDESRILDAGVYDEQGDLIARSGESVEVRDRLALDGKKAGGYFNQQIVEPIAGKNGPLGYLRLTLDTHTLATEAQQVDNTTNILRLMLLLSLAIGVVLTRTLLQGKRTRWQQSPFLLTASKPVPEEEESEKKE [P0AGC7]	h	3.69

In: Sample `MTITDLVLILFIAALLAFAIYDQFIMPRRNGPTLLAIPLLRRGRIDSVIFVGLIVILIYNNVTNHGALITTWLLSALALMGFYIFWIRVPKIIFKQKGFFFANVWIEYSRIKAMNLSEDGVLVMQLEQRRLLIRVRNIDDLEKIYKLLVSTQ` — what was its total protein half-life in vivo?
Out: 5.6

In: Try this sequence next: `MIQSQINRNIRLDLADAILLSKAKKDLSFAEIADGTGLAEAFVTAALLGQQALPADAARLVGAKLDLDEDSILLLQMIPLRGCIDDRIPTDPTMYRFYEMLQVYGTTLKALVHEKFGDGIISAINFKLDVKKVADPEGGERAVITLDGKYLPTKPF`
Out: 3.64

In: And MLIFEGKEIETDTEGYLKESSQWSEPLAVVIAENEGISLSPEHWEVVRFVRDFYLEFNTSPAIRMLVKAMANKFGEEKGNSRYLYRLFPKGPAKQATKIAGLPKPVKCI [P0AB18] ?
Out: 3.49

* * *

# test.summary: total protein half-life in vivo (active degradation + dilution); higher = more stable protein
# condition.notes: wild type E. coli NCM3722; growth: C-lim chemostat; doubling time 3 h
Reported total protein half-life in vivo values are given for each entry in this list.
Give just the numeric value; h need not be written.

seq.text	total protein half-life in vivo [h]
MTLKELLVGFGTQVRSIWMIGLHAFAKRETRMYPEEPVYLPPRYRGRIVLTRDPDGEERCVACNLCAVACPVGCISLQKAETKDGRWYPEFFRINFSRCIFCGLCEEACPTTAIQLTPDFEMGEYKRQDLVYEKEDLLISGPGKYPEYNFYRMAGMAIDGKDKGEAENEAKPIDVKSLLP [P0AFD6]	3.32
MSRFIPIELHHASRLLNHGPTVLITSFDEQSQRRNIMAAAWSMPVEFEPPRVAIVVDKSTWTRELIEHNGKFGIVIPGVAATNWTWAVGSVSGRDEDKFNCYGIPVVRGPVFGLPLVEEKCLAWMECRLLPATSAQEEYDTLFGEVVSAAADARVFVEGRWQFDDDKLNTLHHLGAGTFVTSGKRVTAG	2.96

Now consider the entry below.
In: I am curious: what total protein half-life in vivo value has been reported for `MRRFFWLVAAALLLAGCAGEKGIVEKEGYQLDTRRQAQAAYPRIKVLVIHYTADDFDSSLATLTDKQVSSHYLVPAVPPRYNGKPRIWQLVPEQELAWHAGISAWRGATRLNDTSIGIELENRGWQKSAGVKYFAPFEPAQIQALIPLAKDIIARYHIKPENVVAHADIAPQRKDDPGPLFPWQQLAQQGIGAWPDAQRVNFYLAGRAPHTPVDTASLLELLARYGYDVKPDMTPREQRRVIMAFQMHFRPTLYNGEADAETQAIAEALLEKYGQD` ?
Out: 3.06

* * *

# test.summary: total protein half-life in vivo (active degradation + dilution); higher = more stable protein
# condition.notes: wild type E. coli NCM3722; growth: P-lim chemostat; doubling time 12 h
total protein half-life in vivo values by entry
A number alone suffices; assume h.

Example entries begin here.
seq.text	measurement.unit	total protein half-life in vivo
MDIVFIEQLSVITTIGVYDWEQTIEQKLVFDIEMAWDNRKAAKSDDVADCLSYADIAETVVSHVEGARFALVERVAEEVAELLLARFNSPWVRIKLSKPGAVARAANVGVIIERGNNLKENN [P0AC16]	h	12.4
MRFIIRTVMLIALVWIGLLLSGYGVLIGSKENAAGLGLQCTYLTARGTSTVQYLHTKSGFLGITDCPLLRKSNIVVDNG [Q2MB16]	h	14
MPALDLIRPSVTAMRVIASVNADFARELKLPPHIRSLGLISADSDDVTYIAADEATKQAMVEVVYGRSLYAGAAHGPSPTAGEVLIMLGGPNPAEVRAGLDAMIAHIENGAAFQWANDAQDTAFLAHVVSRTGSYLSSTAGITLGDPMAYLVAPPLEATYGIDAALKSADVQLATYVPPPSETNYSAAFLTGSQAACKAACNAFTDAVLEIARNPIQRA	h	11.4

In: Could you tell me which total protein half-life in vivo is on file for MKKKTTLSEEDQALFRQLMAGTRKIKQDTIVHRPQRKKISEVPVKRLIQEQADASHYFSDEFQPLLNTEGPVKYVRPDVSHFEAKKLRRGDYSPELFLDLHGLTQLQAKQELGALIAACRREHVFCACVMHGHGKHILKQQTPLWLAQHPHVMAFHQAPKEYGGDAALLVLIEVEEWLPPELP [P0A8B2] ?
Out: 6

In: Let us now turn to MILFVGFLLMEIVMPQISRTALVPYSAEQMYQLVNDVQSYPQFLPGCTGSRILESTPGQMTAAVDVSKAGISKTFTTRNQLTSNQSILMNLVDGPFKKLIGGWKFTPLSQEACRIEFHLDFEFTNKLIELAFGRVFKELAANMVQAFTVRAKEVYSAR [P0AGL5]
Out: 1.13

In: Then this sequence: `MANWQSIDELQDIASDLPRFIHALDELSRRLGLNITPLTADHISLRCHQNATAERWRRGFEQCGELLSENMINGRPICLFKLHEPVQVAHWQFSIVELPWPGEKRYPHEGWEHIEIVLPGDPETLNARALALLSDEGLSLPGISVKTSSPKGEHERLPNPTLAVTDGKTTIKFHPWSIEEIVASEQSA`
Out: 6.37

In: Please answer likewise for `MKLGFIGLGIMGTPMAINLARAGHQLHVTTIGPVADELLSLGAVSVETARQVTEASDIIFIMVPDTPQVEEVLFGENGCTKASLKGKTIVDMSSISPIETKRFARQVNELGGDYLDAPVSGGEIGAREGTLSIMVGGDEAVFERVKPLFELLGKNITLVGGNGDGQTCKVANQIIVALNIEAVSEALLFASKAGADPVRVRQALMGGFASSRILEVHGERMIKRTFNPGFKIALHQKDLNLALQSAKALALNLPNTATCQELFNTCAANGGSQLDHSALVQALELMANHKLA`
Out: 2.16

In: Please give the result for `MRKQWLGICIAAGMLAACTSDDGQQQTVSVPQPAVCNGPIVEISGADPRFEPLNATANQDYQRDGKSYKIVQDPSRFSQAGLAAIYDAEPGSNLTASGEAFDPTQLTAAHPTLPIPSYARITNLANGRMIVVRINDRGPYGNDRVISLSRAAADRLNTSNNTKVRIDPIIVAQDGSLSGPGMACTTVAKQTYALPAPPDLSGGAGTSSVSGPQGDILPVSNSTLKSEDPTGAPVTSSGFLGAPTTLAPGVLEGSEPTPAPQPVVTAPSTTPATSPAMVTPQAVSQSASGNFMVQVGAVSDQARAQQYQQQLGQKFGVPGRVTQNGAVWRIQLGPFASKAEASTLQQRLQTEAQLQSFITTAQ` too.
Out: 12.4
